- study_system: T1, Human Id2: Histidine (human, UniProt Q02363 1-134, limits assumed)
- T1 construct: Fusion protein made in E. coli from vector pGW07; also called h-Id2: His; not shown: His tag
- T1 sequence (looked up): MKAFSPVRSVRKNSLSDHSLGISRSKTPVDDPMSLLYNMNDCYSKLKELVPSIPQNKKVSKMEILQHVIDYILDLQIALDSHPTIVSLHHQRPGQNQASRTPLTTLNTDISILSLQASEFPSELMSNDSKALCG
- method_summary: ELISA, Ab 0.005 µg/ml
recorded_metric: A450 (A450)

| binder | recorded_metric | recorded_result |
| --- | --- | --- |
| rabbit monoclonal anti-mouse/human Id3, clone #BCH-4/#42-1 (antibody, V domains shown, Rabbit IgG from a rabbit hybridoma; also called m/h Id3 MoAb 42-1) VH: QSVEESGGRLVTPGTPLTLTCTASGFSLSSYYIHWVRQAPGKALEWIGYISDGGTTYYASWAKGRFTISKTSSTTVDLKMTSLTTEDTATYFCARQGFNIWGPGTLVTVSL VL: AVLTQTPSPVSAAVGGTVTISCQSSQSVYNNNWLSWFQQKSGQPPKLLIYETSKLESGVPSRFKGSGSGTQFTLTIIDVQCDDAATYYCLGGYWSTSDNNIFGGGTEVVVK | A450 | 0.043 |
| rabbit monoclonal anti-mouse/human Id3, clone #BCH-4/#17-3 (antibody, V domains shown, Rabbit IgG from a rabbit hybridoma; also called m/h Id3 MoAb 17-3; BCH-3/#17-3) VH: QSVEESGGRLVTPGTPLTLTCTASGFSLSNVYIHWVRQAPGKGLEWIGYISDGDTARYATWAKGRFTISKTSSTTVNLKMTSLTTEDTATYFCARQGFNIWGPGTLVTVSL VL: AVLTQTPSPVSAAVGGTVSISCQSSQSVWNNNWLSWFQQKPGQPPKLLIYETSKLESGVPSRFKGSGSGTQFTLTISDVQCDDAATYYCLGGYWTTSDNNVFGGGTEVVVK | A450 | 0.045 |
| rabbit monoclonal anti-mouse/human Id3, clone #BCH-4/#6-1 (antibody, V domains shown, Rabbit IgG from a rabbit hybridoma; also called m/h Id3 MoAb 6-1) VH: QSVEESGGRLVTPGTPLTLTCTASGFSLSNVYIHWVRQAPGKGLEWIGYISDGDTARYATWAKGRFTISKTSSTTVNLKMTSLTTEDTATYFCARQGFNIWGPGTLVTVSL VL: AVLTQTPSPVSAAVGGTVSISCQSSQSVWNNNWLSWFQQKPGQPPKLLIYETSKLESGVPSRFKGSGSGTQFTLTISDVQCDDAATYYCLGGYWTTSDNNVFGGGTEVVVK | A450 | 0.045 |
| rabbit monoclonal anti-human Id3, clone #BCH-4/#3-3 (antibody, V domains shown, Rabbit IgG from a rabbit hybridoma; also called h Id3 MoAb 3-3) VH: QSVEESGGRLVTPGTPLTLTCTVSGIDLSSYAMSWVRQAPGKGLEWIGVIFPSNNVYYASWAKGRFTISKTSTTVDLKITSPTTEDTATYFCASMGAFDSWGPGTLVTVSS VL: QVLTQTPSPVSAAVGGTVTINCQASQSIYNDNDLAWFQQKPGQPPKLLIYDASTLTSGVPSRFKGSGSGTQFTLTISDLDCDDAATYYCAARYSGNIYGFGGGTEVVVK | A450 | 0.044 |
| rabbit monoclonal anti-mouse/human Id3, clone #BCH-4/#16-1 (antibody, V domains shown, Rabbit IgG from a rabbit hybridoma; also called m/h Id3 MoAb 16-1) VH: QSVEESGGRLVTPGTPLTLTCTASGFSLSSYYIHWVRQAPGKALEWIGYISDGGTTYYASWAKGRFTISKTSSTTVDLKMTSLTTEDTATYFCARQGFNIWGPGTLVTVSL VL: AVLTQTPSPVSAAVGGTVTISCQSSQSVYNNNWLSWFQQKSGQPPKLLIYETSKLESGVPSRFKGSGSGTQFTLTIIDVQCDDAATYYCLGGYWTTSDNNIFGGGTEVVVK | A450 | 0.046 |
